test: Inhibition of lactase in mouse intestinal input by glucose release assay
Quick list: IC50 per entry.
MEASUREMENT NAME: IC50 (µM)

>  <MOL SMILES>
CCCCCCCOCCCCCN1C[C@H](O)[C@@H](O)[C@H](O)[C@@H]1CO

>  <RESULT VALUE>
250

$$$$
>  <MOL SMILES>
CCCCCCCOCCCCCN1C[C@H](O)[C@@H](O)[C@H](O)[C@H]1CO

>  <RESULT VALUE>
250

$$$$

Where do the numbers come from? From BindingDB's records for doi:10.1021/ml100192b.
